# Organism: Rattus norvegicus
# protocol: Open TG-GATES - Regimen: Single
# Format: toxicity, organism-based, Sprague-Dawley
# Set-up: regimen Single, gender Male, age 6 weeks
# measurement-conditions: in vivo, po, 0 mg/kg, 24 h, tissue Plasma, route gavage, dose level Control
# A/G listing for each entry below
Could you respond with only the numeric value?

Please review the entries below; each comes with its answer.
| molecule | reading |
| --- | --- |
| Cc1nnc2n1-c1ccc(Cl)cc1C(c1ccccc1Cl)=NC2 | 0.9 |
| CNC(=C[N+](=O)[O-])NCCSCc1ccc(CN(C)C)o1 | 1.6 |

Query: So what does the record say about A/G for `Brc1ccccc1` ?
Result: 0.9

Query: So what does the record say about A/G for NC1=NC(=O)C(c2ccccc2)O1 (stereo not drawn) ?
Result: 1

Query: So what does the record say about A/G for `CN/C(=N/CCSCc1nc[nH]c1C)NC#N` ?
Result: 1.6

Query: So what does the record say about A/G for `CC(C)NNC(=O)c1ccncc1` ?
Result: 1.2

Query: So what does the record say about A/G for `O=C(OC[C@H]1O[C@@H](OC(=O)c2cc(O)c(O)c(OC(=O)c3cc(O)c(O)c(O)c3)c2)[C@H](OC(=O)c2cc(O)c(O)c(OC(=O)c3cc(O)c(O)c(O)c3)c2)[C@@H](OC(=O)c2cc(O)c(O)c(OC(=O)c3cc(O)c(O)c(O)c3)c2)[C@@H]1OC(=O)c1cc(O)c(O)c(OC(=O)c2cc(O)c(O)c(O)c2)c1)c1cc(O)c(O)c(OC(=O)c2cc(O)c(O)c(O)c2)c1` ?
Result: 2.1

Query: So what does the record say about A/G for CN1C(=O)CCS(=O)(=O)C1c1ccc(Cl)cc1 (stereo not drawn) ?
Result: 0.9

Provenance of the data: ChEMBL document CHEMBL3885861
